- Test system: influenza A virus minigenome (PB2, PB1, PA, NP; luciferase reporter) in 293T cells, RNP_Hubei
- Experiment: microbe, parasite or virus in culture
- Assay type: cell-based
- Cond: HEK-293T, 48 h
Provide the reported EC50 of each item.

q: For the molecule CC(C)(C)OC(=O)OCOc1c2n(ncc1=O)[C@@H]([C@H](c1ccccc1)c1cccc(F)c1F)[C@H]1CCCN1C2=O , what EC50 is on record?
a: < 100 nM

q: Then this molecule: CC(C)C(=O)Oc1c2n(ncc1=O)[C@@H]([C@H](c1ccc(F)cc1)c1cccc(F)c1F)[C@H]1CCCN1C2=O
a: < 100 nM

q: Then this molecule: O=C1c2c(O)c(=O)cnn2[C@@H](C(c2cccc(F)c2)c2cccc(F)c2)[C@H]2CC(F)(F)CN12
a: 100 to 1000 nM

q: Then this molecule: COc1ccc([C@H](c2ccc(F)cc2)[C@H]2[C@H]3CCCN3C(=O)c3c(O)c(=O)cnn32)cc1
a: 100 to 1000 nM

q: Then this molecule: Cc1oc(=O)oc1COc1c2n(ncc1=O)[C@@H]([C@H](c1ccccc1)c1cccc(F)c1F)[C@H]1CCCN1C2=O
a: < 100 nM

q: Then this molecule: O=C(Oc1c2n(ncc1=O)[C@@H]([C@H](c1cccc(F)c1)c1cccc(F)c1F)[C@H]1CCCN1C2=O)N1CCC(N2CCCCC2)CC1
a: ≥ 1000 nM

q: Then this molecule: CN(C)C(=O)OCOc1c2n(ncc1=O)[C@@H]([C@H](c1ccc(F)cc1)c1cccc(F)c1F)[C@H]1CCCN1C2=O
a: 100 to 1000 nM

###

- Test system: influenza A virus minigenome (PB2, PB1, PA, NP; luciferase reporter) in 293T cells, RNP_Alaska
- Experiment: microbe, parasite or virus in culture
- Format: cell-based
- Cond: HEK-293T, 48 h
pEC50: −log10 of the molar value.
Provide the reported pEC50 of each item.

q: For the molecule O=C(Oc1c2n(ncc1=O)[C@@H]([C@H](c1cccc(F)c1)c1cccc(F)c1F)[C@H]1CCCN1C2=O)N1CCC(N2CCCCC2)CC1 , what pEC50 is on record?
a: ≤ 6.00

q: Then this molecule: CC(C)OC(=O)OCOc1c2n(ncc1=O)[C@@H]([C@H](c1ccc(F)cc1)c1cccc(F)c1F)[C@H]1CCCN1C2=O
a: > 7.00

q: Then this molecule: O=C1c2c(O)c(=O)cnn2[C@@H]([C@H](c2ccc(F)cc2)c2cccc(C(F)(F)F)c2)[C@H]2CCCN12
a: 6.00 to 7.00

q: Then this molecule: Cc1c(F)cccc1[C@@H](c1cccc(F)c1)[C@H]1[C@H]2CCCN2C(=O)c2c(O)c(=O)cnn21
a: > 7.00

q: Then this molecule: Cc1c(F)cccc1[C@@H](c1ccc(F)cc1)[C@H]1[C@H]2CCCN2C(=O)c2c(O)c(=O)cnn21
a: > 7.00

q: Then this molecule: CN(C)C(=O)OCOc1c2n(ncc1=O)[C@@H]([C@H](c1ccccc1)c1cccc(F)c1F)[C@H]1CCCN1C2=O
a: > 7.00

q: Then this molecule: CC(=O)OCOc1c2n(ncc1=O)[C@@H]([C@H](c1ccccc1)c1cccc(F)c1F)[C@H]1CCCN1C2=O
a: > 7.00

q: Then this molecule: O=C1c2c(O)c(=O)cnn2[C@@H]([C@H](c2cccc(C(F)(F)F)c2)c2cccc(F)c2F)[C@H]2CCCN12
a: > 7.00

q: Then this molecule: COCCC(=O)OCOc1c2n(ncc1=O)[C@@H]([C@H](c1ccccc1)c1cccc(F)c1F)[C@H]1CCCN1C2=O
a: ≤ 6.00

q: Then this molecule: O=C1c2c(O)c(=O)cnn2[C@@H]([C@H](c2ccc(F)cc2)c2ccc(C(F)(F)F)cc2)[C@H]2CCCN12
a: 6.00 to 7.00

q: Then this molecule: O=C1c2c(O)c(=O)cnn2[C@@H]([C@@H](c2ccc(F)cc2)c2ccc(C(F)(F)F)cc2)[C@H]2CCCN12
a: 6.00 to 7.00

q: Then this molecule: COCCC(=O)Oc1c2n(ncc1=O)[C@@H]([C@H](c1cccc(F)c1)c1cccc(F)c1F)[C@H]1CCCN1C2=O
a: > 7.00

q: Then this molecule: CC(C)CC(=O)Oc1c2n(ncc1=O)[C@@H]([C@H](c1cccc(F)c1)c1cccc(F)c1F)[C@H]1CCCN1C2=O
a: > 7.00

q: Then this molecule: CCC(=O)Oc1c2n(ncc1=O)[C@@H]([C@H](c1ccccc1)c1cccc(F)c1F)[C@H]1CCCN1C2=O
a: > 7.00

q: Then this molecule: CC(C)(C)C(=O)Oc1c2n(ncc1=O)[C@@H]([C@H](c1ccccc1)c1cccc(F)c1F)[C@H]1CCCN1C2=O
a: > 7.00

q: Then this molecule: CCN(C)C(=O)Oc1c2n(ncc1=O)[C@@H]([C@H](c1ccccc1)c1cccc(F)c1F)[C@H]1CCCN1C2=O
a: ≤ 6.00

q: Then this molecule: COc1ccc([C@@H](c2ccc(F)cc2)[C@H]2[C@H]3CCCN3C(=O)c3c(O)c(=O)cnn32)cc1
a: 6.00 to 7.00

q: Then this molecule: O=C1c2c(O)c(=O)cnn2[C@@H]([C@H](c2ccccc2F)c2cccc(F)c2F)[C@H]2CCCN12
a: > 7.00

q: Then this molecule: CC(C)(C)OC(=O)Oc1c2n(ncc1=O)[C@@H]([C@H](c1ccccc1)c1cccc(F)c1F)[C@H]1CCCN1C2=O
a: > 7.00

q: Then this molecule: COCCOC(=O)OCOc1c2n(ncc1=O)[C@@H]([C@H](c1ccc(F)cc1)c1cccc(F)c1F)[C@H]1CCCN1C2=O
a: > 7.00

q: Then this molecule: CC(=O)Oc1c2n(ncc1=O)[C@@H]([C@H](c1ccccc1)c1cccc(F)c1F)[C@H]1CCCN1C2=O
a: > 7.00

q: Then this molecule: COc1cccc([C@@H](c2cccc(F)c2F)[C@H]2[C@H]3CCCN3C(=O)c3c(O)c(=O)cnn32)c1
a: 6.00 to 7.00

q: Then this molecule: CC(C)OC(=O)OCOc1c2n(ncc1=O)[C@@H]([C@H](c1ccccc1)c1cccc(F)c1F)[C@H]1CCCN1C2=O
a: > 7.00

q: Then this molecule: O=C1c2c(O)c(=O)cnn2[C@@H]([C@H](c2ccc(F)cc2)c2cccc(OC(F)(F)F)c2)[C@H]2CCCN12
a: 6.00 to 7.00

q: Then this molecule: CCOC(=O)OCOc1c2n(ncc1=O)[C@@H]([C@H](c1ccc(F)cc1)c1cccc(F)c1F)[C@H]1CCCN1C2=O
a: > 7.00

q: Then this molecule: Cc1oc(=O)oc1COc1c2n(ncc1=O)[C@@H]([C@H](c1ccccc1)c1cccc(F)c1F)[C@H]1CCCN1C2=O
a: > 7.00

q: Then this molecule: COC(=O)Oc1c2n(ncc1=O)[C@@H]([C@H](c1cccc(F)c1)c1cccc(F)c1F)[C@H]1CCCN1C2=O
a: > 7.00
